molecular target: Voltage-dependent T-type calcium channel subunit alpha-1H (Homo sapiens); type: functional;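 further: channel activity triggered by adding a high calcium stimulation buffer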
Sequence (O95180 whole entry): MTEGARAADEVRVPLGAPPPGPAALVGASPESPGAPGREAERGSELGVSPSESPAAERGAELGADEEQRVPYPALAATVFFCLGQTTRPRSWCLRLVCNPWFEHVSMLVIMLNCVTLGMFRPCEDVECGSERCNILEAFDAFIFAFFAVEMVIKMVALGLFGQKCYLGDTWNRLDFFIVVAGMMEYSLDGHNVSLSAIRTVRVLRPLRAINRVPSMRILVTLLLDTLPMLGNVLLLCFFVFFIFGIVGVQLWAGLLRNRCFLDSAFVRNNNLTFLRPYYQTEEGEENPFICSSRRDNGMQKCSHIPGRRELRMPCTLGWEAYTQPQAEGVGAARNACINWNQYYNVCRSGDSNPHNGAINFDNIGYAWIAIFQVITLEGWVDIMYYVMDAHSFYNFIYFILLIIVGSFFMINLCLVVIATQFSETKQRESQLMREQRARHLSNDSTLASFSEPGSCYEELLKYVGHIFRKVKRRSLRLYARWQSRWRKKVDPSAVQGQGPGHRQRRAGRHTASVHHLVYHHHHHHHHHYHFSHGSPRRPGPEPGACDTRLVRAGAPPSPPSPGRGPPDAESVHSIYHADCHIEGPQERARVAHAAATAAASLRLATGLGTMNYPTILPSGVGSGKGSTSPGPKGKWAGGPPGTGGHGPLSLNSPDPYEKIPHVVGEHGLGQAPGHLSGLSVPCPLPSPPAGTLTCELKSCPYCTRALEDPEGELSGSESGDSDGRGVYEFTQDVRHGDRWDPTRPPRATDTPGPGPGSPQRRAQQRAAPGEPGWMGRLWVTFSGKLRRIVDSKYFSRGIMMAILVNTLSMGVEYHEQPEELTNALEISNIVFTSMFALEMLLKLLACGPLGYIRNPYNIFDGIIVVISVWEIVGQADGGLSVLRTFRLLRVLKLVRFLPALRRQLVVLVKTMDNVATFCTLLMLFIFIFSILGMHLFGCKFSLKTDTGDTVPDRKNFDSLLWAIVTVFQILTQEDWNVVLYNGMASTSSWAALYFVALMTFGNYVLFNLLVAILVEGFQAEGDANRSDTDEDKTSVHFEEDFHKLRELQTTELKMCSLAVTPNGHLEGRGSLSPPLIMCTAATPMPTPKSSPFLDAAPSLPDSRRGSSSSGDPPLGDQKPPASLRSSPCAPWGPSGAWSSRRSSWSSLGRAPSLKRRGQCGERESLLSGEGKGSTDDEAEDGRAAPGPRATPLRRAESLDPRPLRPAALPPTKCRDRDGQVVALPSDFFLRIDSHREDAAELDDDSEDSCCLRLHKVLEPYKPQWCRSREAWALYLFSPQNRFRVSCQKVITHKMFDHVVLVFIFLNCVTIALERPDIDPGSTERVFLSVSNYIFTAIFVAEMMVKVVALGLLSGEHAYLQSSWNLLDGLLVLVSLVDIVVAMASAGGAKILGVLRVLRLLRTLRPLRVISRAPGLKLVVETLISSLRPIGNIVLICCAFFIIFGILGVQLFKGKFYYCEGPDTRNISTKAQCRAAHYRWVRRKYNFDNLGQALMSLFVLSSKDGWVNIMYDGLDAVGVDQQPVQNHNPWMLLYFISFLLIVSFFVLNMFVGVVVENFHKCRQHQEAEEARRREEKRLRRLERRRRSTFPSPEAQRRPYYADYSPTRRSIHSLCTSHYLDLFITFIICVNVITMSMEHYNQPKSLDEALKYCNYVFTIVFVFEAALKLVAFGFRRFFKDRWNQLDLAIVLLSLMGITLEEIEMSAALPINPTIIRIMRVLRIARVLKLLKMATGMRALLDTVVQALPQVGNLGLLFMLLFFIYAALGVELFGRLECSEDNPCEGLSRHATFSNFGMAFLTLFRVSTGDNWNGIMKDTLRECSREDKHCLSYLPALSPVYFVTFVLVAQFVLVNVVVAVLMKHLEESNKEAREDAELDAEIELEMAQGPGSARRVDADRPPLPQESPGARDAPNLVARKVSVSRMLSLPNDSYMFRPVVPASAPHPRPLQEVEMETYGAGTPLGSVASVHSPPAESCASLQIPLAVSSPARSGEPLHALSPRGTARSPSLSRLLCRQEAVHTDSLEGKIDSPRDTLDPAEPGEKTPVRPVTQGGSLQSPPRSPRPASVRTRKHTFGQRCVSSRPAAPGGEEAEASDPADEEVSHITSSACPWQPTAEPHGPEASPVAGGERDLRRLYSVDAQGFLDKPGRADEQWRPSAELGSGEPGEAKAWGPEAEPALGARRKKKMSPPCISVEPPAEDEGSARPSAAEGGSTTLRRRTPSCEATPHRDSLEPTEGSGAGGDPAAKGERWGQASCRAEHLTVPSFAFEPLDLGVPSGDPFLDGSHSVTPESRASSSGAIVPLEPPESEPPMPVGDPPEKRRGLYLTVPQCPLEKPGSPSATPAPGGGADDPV
Activity calls are given as the source filed them.
Each item that follows carries a reported EC50.

EC50 measured on FC(F)(F)c1nc(N2CCCC2)ncc1-c1nnnn1-c1ccc(Cl)cc1 = 14.6 µM (active)

The reported value for O=[N+]([O-])c1cc(S(=O)(=O)Nc2cccc(C(F)(F)F)c2)ccc1-n1nnc2ccccc21 in terms of EC50 is 3.52 µM (active)

Noted for COc1ccc(C2NC(=O)c3sc(=S)n(-c4ccccc4)c3N2)cc1 (stereo not drawn) : its EC50 reads 1.23 µM (active)

====

target: UniProt G5EF15; test: disruptors of C. elegans POS-1 RNA interaction – biochemical, fluorescence polarization, dose response (AID 1964);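 further: purified POS-1 fused to maltose binding protein made in E. coli; potency of compounds blocking POS-1 binding to fluorescent RNA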
Sequence (G5EF15 whole entry, the tested form may be a part): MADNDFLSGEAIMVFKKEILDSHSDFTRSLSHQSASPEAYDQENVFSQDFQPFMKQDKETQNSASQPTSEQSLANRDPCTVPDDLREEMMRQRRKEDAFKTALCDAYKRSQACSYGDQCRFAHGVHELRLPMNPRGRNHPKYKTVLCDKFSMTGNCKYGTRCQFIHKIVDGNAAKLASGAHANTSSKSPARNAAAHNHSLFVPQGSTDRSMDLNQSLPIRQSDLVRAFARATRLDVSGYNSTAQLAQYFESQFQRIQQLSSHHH
Activity calls are given as the source filed them.
# EC50 per entry

Solved cases (3 shown):
Data point: CC(C)(C)OC(=O)NCCCC1=CC2=CC(=O)C(C)(OC(=O)c3ccco3)C(=O)C2=CO1 (stereo not drawn) ; EC50 = 46.9 µM (active)

Quick note, EC50 for COC(=O)c1ccc(C23CC4(C2)[C@H](CN(Cc2ccc(C(F)(F)F)cc2)[C@@H]4c2ccccc2)C3c2ccccc2)cc1 (stereo partly drawn) landed at > 300 µM (not active)

// EC50 value for Cc1ccc(N2C(=O)NC(=O)/C(=C\c3cc(C)n(-c4cc(C(=O)O)cc(C(=O)O)c4)c3C)C2=O)cc1 : > 300 µM (not active)

More entries:
In plain terms, COC(=O)CCC(=O)OC1(C)C(=O)C2=CN(CCc3ccccn3)C(c3ccc(OC)cc3)=CC2=C(Br)C1=O (stereo not drawn) has a documented EC50 of 68.5 µM (active)

Form: compound = CC(=O)C1=C(c2cccc([N+](=O)[O-])c2)N(C(C)=O)n2c(C)nnc2S1 ; EC50 = 44.2 µM (active)

EC50 measured on O=C(N[C@H]1CP(=O)(Oc2ccccc2)O[C@H](COCc2ccccc2)[C@H]1O)C(Cl)(Cl)Cl (stereo partly drawn) = > 300 µM (not active)

// recorded EC50 for Cc1ccc2nc(O)c(CN(CCO)Cc3nnnn3CCc3ccccc3)cc2c1 : > 300 µM (not active)

According to the records, this compound c1ccc2nc3cc4[nH]cnc4cc3nc2c1 displays EC50 of 7.59 µM (inconclusive)

====

Molecular target: Streptokinase A (Streptococcus pyogenes serotype M1, UniProt P10520)
Sequence (P10520 whole entry): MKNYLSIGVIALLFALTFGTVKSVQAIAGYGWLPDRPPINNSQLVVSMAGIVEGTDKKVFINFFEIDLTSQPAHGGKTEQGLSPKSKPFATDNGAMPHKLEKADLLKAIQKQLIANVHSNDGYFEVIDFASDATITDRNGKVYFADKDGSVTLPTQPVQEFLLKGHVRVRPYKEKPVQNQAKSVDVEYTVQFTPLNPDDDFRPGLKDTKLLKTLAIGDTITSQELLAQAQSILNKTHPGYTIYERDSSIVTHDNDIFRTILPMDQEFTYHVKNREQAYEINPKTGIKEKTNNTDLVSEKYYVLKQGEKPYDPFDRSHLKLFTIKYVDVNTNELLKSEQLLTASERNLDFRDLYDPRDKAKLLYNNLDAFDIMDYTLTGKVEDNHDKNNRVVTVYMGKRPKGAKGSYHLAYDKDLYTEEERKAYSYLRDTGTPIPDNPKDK
Assay: viability-normalized secreted streptokinase activity reduction – plasminogen activation absorbance, OD405, dose response (AID 1914);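 further: secreted streptokinase activity via plasminogen activation per viability signal from cell pellet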
Assay type: functional, Streptococcus pyogenes M1 GAS
Activity calls are given as the source filed them.
ATTRIBUTE_MEASURED: EC50

Here's what some known entries look like.
response.value for COc1ccc(N2CCN(CC(=O)Nc3nc4c(s3)CC(C)CC4)CC2)cc1 (configuration not stated) (field: EC50) = > 150 µM (not active)

The recorded EC50 for CCSc1nnc(NC(=O)c2nc(-c3ccccc3)n(-c3ccccc3)n2)s1 is 20.2 µM (active)

Continuing:
Per the record, Cc1ccc(S(=O)(=O)Nc2ccc(Cl)cc2)cc1NC(=O)c1cc2c(s1)CCCC2 has EC50 of > 150 µM (not active)
